Answer each item with its documented Cell viability (Fold DMSO).
Test system: Huh7.5 cells
Experiment Description: Cell viability, CellTiter-Glo luminescent assay
Measurement Conditions: Table 2, 6A1HI analogues, 50 μM, Huh7.5, 2 days
Give bare numbers, in fold DMSO.

OCc1ccc2cn[nH]c2c1 [Compound 3] = 0.93
Oc1ccc2[nH]ncc2c1 [Compound 18] = 0.98

# input for lookup
Exercise: What measured Cell viability (Fold DMSO) goes with NCc1ccc2cn[nH]c2c1 [Compound 6] ?
Solution: 0.76

---

Tested on: Huh7.5 cells
Experiment Description: Cell viability, CellTiter-Glo luminescent assay
Measurement Conditions: deconvolution screen, singletons, 50 µM, uninfected Huh7.5
Recorded Metric: Cell viability (fold DMSO) Mean
Answers are plain numbers, in fold DMSO.

Worked cases, answers included:
COc1cc(F)c(C#N)c(F)c1 = 1.01
Cc1onc(-c2ccccc2)c1C#N [Compound 10B-058, Cc1onc(c2ccccc2)c1C#N] = 0.98
CNC(=O)Nc1ccc(F)c(C)c1 = 1.00

# input for lookup
Exercise: What measured Cell viability (fold DMSO) Mean goes with `Nc1cccc(Cl)c1` ?
Solution: 0.98
